- experiment description: in vitro
- protocol conditions: human
Reported IC50 at 48 h values for a set of compounds
endpoint label: IC50 at 48 h

• CC1(C)C(C=C(Cl)Cl)C1C(=O)OC(C#N)c1cccc(Oc2ccccc2)c1 (stereo not drawn) [α-Cypermethrin] = > 50 µM
• COC(=O)c1ccccc1CS(=O)(=O)NC(=O)Nc1nc(OC)cc(OC)n1 [Bensulfuron methyl] = > 50 µM
• CC1(C)C(C=C(Cl)Cl)C1C(=O)OCc1cccc(Oc2ccccc2)c1 (stereo not drawn) [Permethrin] = > 50 µM

* * *

- test target: hPXR (Homo sapiens)
- Sequence (O75469 whole entry): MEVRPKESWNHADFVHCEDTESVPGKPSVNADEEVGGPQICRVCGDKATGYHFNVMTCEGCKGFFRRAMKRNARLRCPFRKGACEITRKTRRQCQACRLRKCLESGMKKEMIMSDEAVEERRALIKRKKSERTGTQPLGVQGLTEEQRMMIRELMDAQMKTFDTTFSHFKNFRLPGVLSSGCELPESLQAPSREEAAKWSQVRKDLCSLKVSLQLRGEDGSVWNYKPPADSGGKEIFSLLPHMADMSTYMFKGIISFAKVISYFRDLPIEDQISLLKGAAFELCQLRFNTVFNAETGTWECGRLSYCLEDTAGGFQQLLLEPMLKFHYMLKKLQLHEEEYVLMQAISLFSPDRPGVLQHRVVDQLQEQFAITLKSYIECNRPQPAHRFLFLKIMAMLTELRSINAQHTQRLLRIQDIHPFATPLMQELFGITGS
- experiment description: hPXR reporter gene assay with DPX-2 cells, agonist mode
- protocol conditions: DPX-2 cells, agonist mode
endpoint label: DPX-2 hPXR agonist class

• CC1(C)C(C=C(Cl)Cl)C1C(=O)OCc1cccc(Oc2ccccc2)c1 (stereo not shown) [Permethrin] = 29.09 (M) (M, EC50 11–50 μM)
• CC1(C)C(C=C(Cl)Cl)C1C(=O)OC(C#N)c1ccc(F)c(Oc2ccccc2)c1 (stereo not drawn) [β-Cyfluthrin] = M (M, EC50 11–50 μM)
• Cc1nn(C)c(Oc2ccccc2)c1/C=N/OCc1ccc(C(=O)OC(C)(C)C)cc1 [Z,E-fenpyroximate] = M (M, EC50 11–50 μM)
